test: single oral dose pharmacokinetic study in healthy and NASH subjects; format: in vivo, human; conditions: human, plasma, po, 50 mg, 50 mg single oral dose, Healthy; read-out: AUC0-last, Geometric Mean
valueType: AUC(0-t) (ng·h/mL)
Numbers only, in ng·h/mL.

## Input What does the data say about its AUC(0-t)? Entry: C[C@H](CCCC(C)(C)O)[C@H]1CC[C@H]2[C@@H]3CC=C4C[C@@H](OS(=O)(=O)[O-])CC[C@]4(C)[C@H]3CC[C@]12C.[Na+] [25HC3S sodium, 25-hydroxycholesterol-3-sulfate sodium]
## Output 450

====

assay: single oral dose pharmacokinetic study in healthy and NASH subjects; format: in vivo, human; conditions: human, plasma, po, 50 mg, 50 mg single oral dose, Healthy; read-out: AUC0-12, Mean
valueType: AUC(0-t) (ng·h/mL)
Answers are plain numbers, in ng·h/mL.

## Input What does the data say about its AUC(0-t)? Entry: C[C@H](CCCC(C)(C)O)[C@H]1CC[C@H]2[C@@H]3CC=C4C[C@@H](OS(=O)(=O)[O-])CC[C@]4(C)[C@H]3CC[C@]12C.[Na+] [25HC3S sodium, 25-hydroxycholesterol-3-sulfate sodium]
## Output 528

====

experiment: single oral dose pharmacokinetic study in healthy and NASH subjects; type: in vivo, human; details: human, plasma, po, 200 mg, 200 mg single oral dose, NASH; read-out: Tmax, Mean
valueType: Tmax (h)
One number for each entry, in h.

## Input What does the data say about its Tmax? Entry: C[C@H](CCCC(C)(C)O)[C@H]1CC[C@H]2[C@@H]3CC=C4C[C@@H](OS(=O)(=O)[O-])CC[C@]4(C)[C@H]3CC[C@]12C.[Na+] [25HC3S sodium, 25-hydroxycholesterol-3-sulfate sodium]
## Output 2.91

====

assay: Phase 1b 4-week oral dosing study in NASH patients: pharmacokinetics; type: in vivo, human; details: both sexes, human, plasma, oral; 50 mg QD (n = 22); read-out: T1/2, mean (standard deviation) (converted)
valueType: half-life
Answer shape: numeric part, then the unit.

## Input What does the data say about its half-life? Entry: C[C@H](CCCC(C)(C)O)[C@H]1CC[C@H]2[C@@H]3CC=C4C[C@@H](OS(=O)(=O)O)CC[C@]4(C)[C@H]3CC[C@]12C [25HC3S, 25-hydroxycholesterol-3-sulfate]
## Output 2.7 h

====

test: single oral dose pharmacokinetic study in healthy and NASH subjects; format: in vivo, human; settings: human, plasma, po, 200 mg, 200 mg single oral dose, Healthy; read-out: T1/2, Mean (converted)
valueType: half-life (h)
One number for each entry, in h.

## Input What does the data say about its half-life? Entry: C[C@H](CCCC(C)(C)O)[C@H]1CC[C@H]2[C@@H]3CC=C4C[C@@H](OS(=O)(=O)[O-])CC[C@]4(C)[C@H]3CC[C@]12C.[Na+] [25HC3S sodium, 25-hydroxycholesterol-3-sulfate sodium]
## Output 1.75

====

assay: single oral dose pharmacokinetic study in healthy and NASH subjects; format: in vivo, human; conditions: human, plasma, po, 50 mg, 50 mg single oral dose, NASH; read-out: AUC0-last, Mean
valueType: AUC(0-t)
Answer shape: numeric part, then the unit.

## Input What does the data say about its AUC(0-t)? Entry: C[C@H](CCCC(C)(C)O)[C@H]1CC[C@H]2[C@@H]3CC=C4C[C@@H](OS(=O)(=O)[O-])CC[C@]4(C)[C@H]3CC[C@]12C.[Na+] [25HC3S sodium, 25-hydroxycholesterol-3-sulfate sodium]
## Output 513 ng·h/mL

====

assay: single oral dose pharmacokinetic study in healthy and NASH subjects; type: in vivo, human; conditions: human, plasma, po, 50 mg, 50 mg single oral dose, Healthy; read-out: AUCinf, Geometric Mean
valueType: AUC(0-inf) (ng·h/mL)
Numbers only, in ng·h/mL.

## Input What does the data say about its AUC(0-inf)? Entry: C[C@H](CCCC(C)(C)O)[C@H]1CC[C@H]2[C@@H]3CC=C4C[C@@H](OS(=O)(=O)[O-])CC[C@]4(C)[C@H]3CC[C@]12C.[Na+] [25HC3S sodium, 25-hydroxycholesterol-3-sulfate sodium]
## Output 423

====

assay: single oral dose pharmacokinetic study in healthy and NASH subjects; format: in vivo, human; conditions: human, plasma, po, 200 mg, 200 mg single oral dose, Healthy; read-out: AUCinf, Mean
valueType: AUC(0-inf) (ng·h/mL)
Numbers only, in ng·h/mL.

## Input What does the data say about its AUC(0-inf)? Entry: C[C@H](CCCC(C)(C)O)[C@H]1CC[C@H]2[C@@H]3CC=C4C[C@@H](OS(=O)(=O)[O-])CC[C@]4(C)[C@H]3CC[C@]12C.[Na+] [25HC3S sodium, 25-hydroxycholesterol-3-sulfate sodium]
## Output 1190

====

Experiment: single oral dose pharmacokinetic study in healthy and NASH subjects
Type: in vivo, human
Conditions: human, plasma, po, 200 mg, 200 mg single oral dose, Healthy; read-out: AUC0-last, Mean
Description: The present Example was a randomized, dose ranging, single dose safety and pharmacokinetic study of 25HC3S administered to subjects with NASH and control healthy subjects. […] For each cohort, 10 subjects with NASH were enrolled which were further classified into cirrhotic and non-cirrhotic. Each subject received only one dose of study treatment. The second cohort was dosed after a review of safety and tolerability data from Cohort 1.
valueType: AUC(0-t) (µg·h/mL)
Answers are plain numbers, in µg·h/mL.

## Input What does the data say about its AUC(0-t)? Entry: C[C@H](CCCC(C)(C)O)[C@H]1CC[C@H]2[C@@H]3CC=C4C[C@@H](OS(=O)(=O)[O-])CC[C@]4(C)[C@H]3CC[C@]12C.[Na+] [25HC3S sodium, 25-hydroxycholesterol-3-sulfate sodium]
## Output 1.19

====

assay: single oral dose pharmacokinetic study in healthy and NASH subjects; assay type: in vivo, human; details: human, plasma, po, 200 mg, 200 mg single oral dose, NASH; read-out: T1/2, Geometric Mean (converted)
valueType: half-life (h)
Numbers only, in h.

## Input What does the data say about its half-life? Entry: C[C@H](CCCC(C)(C)O)[C@H]1CC[C@H]2[C@@H]3CC=C4C[C@@H](OS(=O)(=O)[O-])CC[C@]4(C)[C@H]3CC[C@]12C.[Na+] [25HC3S sodium, 25-hydroxycholesterol-3-sulfate sodium]
## Output 2.2

====

experiment: single oral dose pharmacokinetic study in healthy and NASH subjects; format: in vivo, human; settings: human, plasma, po, 50 mg, 50 mg single oral dose, NASH; read-out: Cmax, Mean
valueType: Cmax (ng/mL)
Numbers only, in ng/mL.

## Input What does the data say about its Cmax? Entry: C[C@H](CCCC(C)(C)O)[C@H]1CC[C@H]2[C@@H]3CC=C4C[C@@H](OS(=O)(=O)[O-])CC[C@]4(C)[C@H]3CC[C@]12C.[Na+] [25HC3S sodium, 25-hydroxycholesterol-3-sulfate sodium]
## Output 113

====

assay: single oral dose pharmacokinetic study in healthy and NASH subjects; type: in vivo, human; conditions: human, plasma, po, 200 mg, 200 mg single oral dose, Healthy; read-out: T1/2, Geometric Mean (converted)
valueType: half-life (h)
One number for each entry, in h.

## Input What does the data say about its half-life? Entry: C[C@H](CCCC(C)(C)O)[C@H]1CC[C@H]2[C@@H]3CC=C4C[C@@H](OS(=O)(=O)[O-])CC[C@]4(C)[C@H]3CC[C@]12C.[Na+] [25HC3S sodium, 25-hydroxycholesterol-3-sulfate sodium]
## Output 1.72

====

assay: single oral dose pharmacokinetic study in healthy and NASH subjects; type: in vivo, human; settings: human, plasma, po, 200 mg, 200 mg single oral dose, Healthy; read-out: Vz/F, Geometric Mean
valueType: Vd/F (L)
Give bare numbers, in L.

## Input What does the data say about its Vd/F? Entry: C[C@H](CCCC(C)(C)O)[C@H]1CC[C@H]2[C@@H]3CC=C4C[C@@H](OS(=O)(=O)[O-])CC[C@]4(C)[C@H]3CC[C@]12C.[Na+] [25HC3S sodium, 25-hydroxycholesterol-3-sulfate sodium]
## Output 420

====

experiment: single oral dose pharmacokinetic study in healthy and NASH subjects; format: in vivo, human; settings: human, plasma, po, 200 mg, 200 mg single oral dose, Healthy; read-out: AUC0-12, Geometric Mean
valueType: AUC(0-t) (ng·h/mL)
Give bare numbers, in ng·h/mL.

## Input What does the data say about its AUC(0-t)? Entry: C[C@H](CCCC(C)(C)O)[C@H]1CC[C@H]2[C@@H]3CC=C4C[C@@H](OS(=O)(=O)[O-])CC[C@]4(C)[C@H]3CC[C@]12C.[Na+] [25HC3S sodium, 25-hydroxycholesterol-3-sulfate sodium]
## Output 1160

====

experiment: single oral dose pharmacokinetic study in healthy and NASH subjects; type: in vivo, human; conditions: human, plasma, po, 200 mg, 200 mg single oral dose, NASH; read-out: Cmax, Geometric Mean
valueType: Cmax
Answer shape: numeric part, then the unit.

## Input What does the data say about its Cmax? Entry: C[C@H](CCCC(C)(C)O)[C@H]1CC[C@H]2[C@@H]3CC=C4C[C@@H](OS(=O)(=O)[O-])CC[C@]4(C)[C@H]3CC[C@]12C.[Na+] [25HC3S sodium, 25-hydroxycholesterol-3-sulfate sodium]
## Output 0.319 µg/mL
